growth inhibition values for the compounds below.
- experiment.summary: NCI Yeast Anticancer Drug Screen. Data for the mlh1 rad18 strain (AID 175)
- condition.label: S. cerevisiae mlh1 rad18 strain growth inhibition; at 50.0 µM; hits give high values
This is part of a sample that, as a whole, favours compounds with a hit. Of some 79,000 tested, about 15% had one in any assay. Activity calls are given as the source filed them. Rule as the data show it: active = growth inhibition above about 70%; inactive = the rest.

smiles.representation	growth inhibition
O=Cc1ccc(C=O)cc1	32.5% (inactive)
O=C(O)c1cc(-c2ccccc2)nc2c(Cl)cc(Cl)cc12	-3.6% (inactive)
C/C(CC(=O)CCC(=O)Nc1cccc(C(F)(F)F)c1)=N\NC(=O)NN	-15.8% (inactive)
COC1=CCC2=C(CCO2)C1	1.1% (inactive)
C=CCN1C=CC=C/C1=C\C=C(/C#N)C(=O)OCC	7.35% (inactive)
O=C1OCC/C1=C\c1cccc2ccccc12	6.35% (inactive)
CCCCOC(=O)c1ccc(NC(=O)CCCN(CC)CC)cc1	-5% (inactive)

====

- experiment.summary: NCI Yeast Anticancer Drug Screen. Data for the bub3 strain (AID 167)
- condition.label: S. cerevisiae bub3 mutant strain, at 50.0 µM, hits give high values
About 79,000 compounds went through this panel and 15% of them were active in at least one assay; those are over-represented in the sample as a whole. *1 amine or outer side, *2 acyl side, *3 side chain or, on linkers, in order; H or OH if unused. Where a SMILES comes first, the peptide text is derived from it. The star is where a group is joined. γGlu = O=C(O)[CH](CCC(=O)[*:2])N[*:1]; NHOH = ON*
growth inhibition values for the compounds below.
reported.endpoint: growth inhibition (%)

compound	reported.endpoint	unit.text	measured
CC/C(CC(=O)CCC(=O)Nc1ccccc1[N+](=O)[O-])=N/NC(=O)C[n+]1ccccc1	growth inhibition	%	-1.35
NC(CCC(=O)NC(CCC(=O)NO)C(=O)NCC(=O)O)C(=O)O (stereo not drawn) (γGlu-Glu(NHOH)-Gly-OH; configuration not given here)	growth inhibition	%	-4.85
O=C(c1ccccc1)N(N=C(c1ccc([N+](=O)[O-])cc1)c1ccc([N+](=O)[O-])cc1)c1ccccc1	growth inhibition	%	5
CCCCCCCCC(=O)c1c(OC)oc(C=O)cc1=O	growth inhibition	%	-19.6
CC(C)(C)C1CCC(C(=O)c2ccccc2)CC1 (stereo not drawn)	growth inhibition	%	-28.6
C=C1CC/C=C(\C)CCC2C1CC2(C)C (stereo not drawn)	growth inhibition	%	21.1
CCOC(=O)CNc1nc(Cl)nc(NCC(=O)OCC)n1	growth inhibition	%	28.9
c1ccc(CC(c2cccc3ccccc23)N2CCOCC2)cc1 (stereo not drawn)	growth inhibition	%	30

====

- experiment.summary: NCI Yeast Anticancer Drug Screen. Data for the cln2 rad14 strain (AID 165);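 also: 0% = growth equal to vehicle treated cultures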
- condition.label: S. cerevisiae cln2 rad14 strain, at 50.0 µM, hits give high values
This is part of a sample that, as a whole, favours compounds with a hit. Of some 79,000 tested, about 15% had one in any assay. Where a SMILES comes first, the peptide text is derived from it. The star is where a group is joined. Trt = c1ccc(C(c2ccccc2)(c2ccccc2)*)cc1; Benzhydryl = c1ccc(C(c2ccccc2)*)cc1; Cbz = O=C(OCc1ccccc1)*
growth inhibition values for the compounds below.

compound	growth inhibition / %
COc1cc(/C=C/c2ccccn2)oc(=O)c1	-14.3
C1CCC(C2CCC(C3CCCCC3)CC2)CC1 (centres undefined)	-45.6
CC(=O)OCC12CC(c3ccoc3)OC3CCC4C(=O)OC(CC1C)C4(C)C32 (centres undefined)	4.3
CC(=O)OC1CN(c2ccccc2)CC(OC(C)=O)CN(c2ccccc2)C1 (centres undefined)	-24.4
O=C1CCCCC1CN1CCOCC1 (centres undefined)	-6.45
COC(=O)C#Cc1cccc(OC)c1OC	-31.2
OCC1OC(n2cnc3c([Se]Cc4ccccn4)ncnc32)C(O)C1O (centres undefined)	-3.75
COC(=O)NN1C(C)=C(C(=O)OC)C2(C#N)C(C(=O)OC)=C(C)N(NC(=O)OC)C12N (centres undefined)	9.85
CC(CNC(=O)C12CC3CC(CC(C3)C1)C2)NC(=O)C12CC3CC(CC(C3)C1)C2 (centres undefined)	7.85
CCN(CC)CCCS/C(N)=N\S(=O)(=O)c1ccc(N)cc1	-7.8
Cc1cc2nc3c(=O)[nH]c(=O)nc-3n(CCO)c2cc1C	-39.4
COC(=O)c1cc(CN(C)C)c(O)c(CN(C)C)c1	-3.7
c1ccc(C2SCCN2c2ccccc2)cc1 (centres undefined)	9.95
O=C1CSC(c2ccccc2[N+](=O)[O-])N1c1ccc(-n2c(-c3ccccc3)nc3ccccc3c2=O)cc1 (centres undefined)	-16.1
COc1ccc2oc(=S)[nH]c2c1	9.4
CN/N=C(\C)CC(=O)Nc1cccc(Cl)c1C	17.2
CCCCCCCCNC(C(=O)c1ccccc1)c1ccccc1 (centres undefined)	14
CO/N=C(\C([O-])=N\[n+]1cnn(CC(=O)OC(C)(C)C)c1)c1csc(NC(c2ccccc2)(c2ccccc2)c2ccccc2)n1	8.3
COC(=O)C(Cc1[nH]c(N=Nc2ccc(Br)cc2)nc1N=Nc1ccc(Br)cc1)NC(C)=O (centres undefined)	-11.1
O=C(/C=C/c1cccc(O)c1)c1ccccc1	59.8
O=C(O)CSc1n[nH]c(-c2ccccc2O)n1	17.5
COC(=O)C(Cc1ccccc1)NC(=O)C(Cc1ccccc1)NC(=O)CNC(=O)C(CSC(c1ccccc1)c1ccccc1)NC(=O)C(CSC(c1ccccc1)(c1ccccc1)c1ccccc1)NC(=O)OCc1ccccc1 (centres undefined) (Cbz-C(Trt)C(Benzhydryl)GFF-OMe; configuration not given here)	-14.9
COc1ccccc1C1OC2=C(Nc3ccc([N+](=O)[O-])cc3N2)C1=O (centres undefined)	16.6
O=C1c2ccc(=O)[nH]c2C(=O)C2CC3=C(CCCC3)CC12 (centres undefined)	-71.1
COc1cc2c(cc1C(C)c1ccc(OC(C)C)cc1)OCO2 (centres undefined)	-48.5
Nc1c(Cl)cc(C(=O)NC2CC2)cc1Cl	-4.8
CCOC(=O)c1nnsc1NN	0.95
COC(=O)C[CH2][Ge]([CH3])([CH3])[S]c1ccccc1	4.3
CSCCC(NC(=O)c1cnc2ccccc2c1)C(N)=O (centres undefined)	-33.6
